# Lookup of reported % increase in heart rate, Pupal keyed by entry
Test system: adult, larval, and pupal heart
TEST_PROTOCOL: in vivo semi-isolated heart rate assay
Design: species or system Drosophila melanogaster
MEASUREMENT_CONTEXT: pupal heart (white prepupae), peptide 1 µM, maximum response within 10-minute recording, mean ± S.E.M., n≥6, basal heart rate = 100%
Return type: number; implicit unit %.

TPAEDFMRF-NH2 [D. melanogaster FMRF-NH2 peptide encoded in dFMRFa]	26

Lookup: Request the reported % increase in heart rate, Pupal associated with SPKQDFMRF-NH2 [D. melanogaster FMRF-NH2 peptide encoded in dFMRFa]
Found: 12

Lookup: Can you handle DPKQDFMRF-NH2 [D. melanogaster FMRF-NH2 peptide encoded in dFMRFa] next?
Found: 21

Lookup: What do you have for SDNFMRF-NH2 [D. melanogaster FMRF-NH2 peptide encoded in dFMRFa] ?
Found: 15

Lookup: Check PDNFMRF-NH2 [D. melanogaster FMRF-NH2 peptide encoded in dFMRFa] too.
Found: 27
